Molecular target: Inadl_9, Q8NI35
Sequence (Q8NI35 1530-1615): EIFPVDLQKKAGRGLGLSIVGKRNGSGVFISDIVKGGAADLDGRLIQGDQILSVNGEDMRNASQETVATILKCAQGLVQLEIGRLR
Assay: holdup assay
Design: key: below the threshold = too weak to quantify, mostly under pKd 3.1 to 4
Conditions: plain residues with an end cap or a label only (N-terminal biotin on a linker: ado-ado)
READOUT: pKd
Answer with the value's number alone.

PKSNSSKEYV [CLDN7, O95471]
3.71

Next, consider the following binder.
Returns the measured pKd for the input binder. Input: FHSIKQSTAV [CRHR1, P34998]
3.83
